Assay: protein stability index of a GFP-peptide fusion (yeast GPS) (PSI 1-4); higher = more stable; sorted into four equal gates, so the index is relative within each strain
Details: pdr5∆
protein stability index of 2 or higher: 1. Under 2: 0.

# count of solved cases: 2
seq	cat
ALREMRKSDQQDVLKGS [POP1]	1
QFSESTHNDIDSTAVAL [YJL039C/NUP192]	1

Has KLKYHDFLRKATAFNKT [RPL16A] a recorded protein stability index greater than or equal to 2?
0

Follow-up entry: LLLKKLDNFQKSVEKTM [SMC3]
1

Follow-up entry: VLISKLSCEKITHYAVR [RRI1]
0

---

Assay: protein stability index of a GFP-peptide fusion (yeast GPS) (PSI 1-4); higher = more stable; sorted into four equal gates, so the index is relative within each strain
Conditions: san1∆
protein stability index of 2 or higher: y. Under 2: n.

seq	cat
LCEEYLVNNGQSDLEHD [RPN7]	y
ASAKSVRSGVSKSAPSK [YAR002W/NUP60]	y
QLFRTNKVQIMIATNVA [PRP28]	n
TSKSLVKRYRLAPTQLS [SIN4]	y
VIDTLAAGYGKILGKGR [RPL28]	y

Has KGKKYQPKDLRAKKTRA [RPL35A] a recorded protein stability index greater than or equal to 2?
y

Follow-up entry: EVPEGVTVSIKSRIVKV [RPL9A]
n

Follow-up entry: HDISRYVRAKFLDYTTD [PRP8]
n

Follow-up entry: SNELIEHFSHFGHIMED [YDL088C/ASM4]
y

Follow-up entry: LPIESQFVSKLVDNLNA [BRR2]
y

---

Experiment: protein stability index of a GFP-peptide fusion (yeast GPS) (PSI 1-4); higher = more stable; sorted into four equal gates, so the index is relative within each strain
Conditions: ubr1∆
protein stability index of 3 or higher: fulfilled. Under 3: not fulfilled.

# count of solved cases: 5
seq	cat
SAPIYVDIEYTRGRNII [RET1]	not fulfilled
AGETLILDGLTVRLVNL [SRB2]	not fulfilled
HLIFSNARIYNTEGSVV [SNF2]	fulfilled
SGDREVQRTMLELLNQL [RPT5]	fulfilled
VKKPTFTFGQSTSENKI [YOR098C/NUP1]	fulfilled

Has LFGENDTSTQAYEEEEE [NUT1] a recorded protein stability index greater than or equal to 3?
fulfilled

Follow-up entry: PNVSDKYYLEESNVNDS [NUT1]
fulfilled

Follow-up entry: AIVFEEIKNWISDIPYV [YMR129W/POM152]
not fulfilled

Follow-up entry: GLFGANSNSNSGSLFGS [YGL172W/NUP49]
not fulfilled

Follow-up entry: EETNVDIGVLEEYARRL [SMC4]
fulfilled

Follow-up entry: YKVDAEGKVTKLRRECS [RPS31]
fulfilled

Follow-up entry: KNAAESSYMGKHWTEKS [PRP28]
fulfilled

Follow-up entry: LFAREIAKSQDKKSCSV [DPB4]
fulfilled

Follow-up entry: VSALQMLKQHLFKYQGH [PUP1]
not fulfilled

Follow-up entry: ATEVTPQEPKHIQEEEE [RPC19]
fulfilled

Follow-up entry: GTNNARLAQLLRQLASY [RPN1]
fulfilled

Follow-up entry: MASNEVLVLRGTLEGHN [ASC1]
fulfilled

Follow-up entry: DIETQLCSMLQEASQVT [MED11]
not fulfilled

---

Experiment: protein stability index of a GFP-peptide fusion (yeast GPS) (PSI 1-4); higher = more stable; sorted into four equal gates, so the index is relative within each strain
Conditions: ubr1∆
protein stability index of 3 or higher: criterion met. Under 3: criterion not met.

# count of solved cases: 5
seq	cat
MGPLYQNFAEFMTKLLE [IRR1]	criterion not met
YDEDPYGFEDESAPITA [RPB2]	criterion met
EWRKSAIANTLLYLRLK [PRP8]	criterion not met
DLTMGQVGERIKQTFKN [RPO21]	criterion met
EAKKFEPTYRLVRYGLA [RPS24A]	criterion not met

Has KVISNPLLARKQFVVDV [RPS24A] a recorded protein stability index greater than or equal to 3?
criterion not met

Follow-up entry: NQLEDFILELEHKTPEL [YIL149C/MLP2]
criterion met

Follow-up entry: GGSGAATFSVSQASSDL [CSL4]
criterion met

Follow-up entry: VFYRGMTMQVAVPRDEL [FAS1]
criterion not met

Follow-up entry: VLRINKMLSCAGADRLQ [RPL10]
criterion not met

---

Assay: protein stability index of a GFP-peptide fusion (yeast GPS) (PSI 1-4); higher = more stable; sorted into four equal gates, so the index is relative within each strain
Conditions: ubr1∆
protein stability index of 3 or higher: yes (1). Under 3: no (0).

# count of solved cases: 5
seq	cat
SGWGAVVYIIKKDEVVK [PUP3]	yes (1)
SNDLDKFFQKKIHLYEK [YGL172W/NUP49]	no (0)
QKQWDDIAFVLNNLPYK [YCS4]	yes (1)
GLSQTEAFGNIKIDAKP [MCD1]	no (0)
FNFFEPIKEAKIKHGSV [YMR129W/POM152]	no (0)

Could you now look at the following sequence, please?
Has QLYFKKKVNYKVTSYDI [ISW2] a recorded protein stability index greater than or equal to 3?
no (0)

---

Assay: protein stability index of a GFP-peptide fusion (yeast GPS) (PSI 1-4); higher = more stable; sorted into four equal gates, so the index is relative within each strain
Details: doa10∆
Would you kindly list protein stability index for each of these sequences?
Give bare numbers.

seq	protein stability index
NTQLHGPSATDPETTAT [RGR1]	3.01
TAFKSSPFGGSSHAKGI [RPS23A]	3.02

Okay, now this sequence:
Which protein stability index is listed for AQGKEFGVTKARWPAKS [RPL17A] ?
3.02

---

Would you kindly list protein stability index for each of these sequences?
Test: protein stability index of a GFP-peptide fusion (yeast GPS) (PSI 1-4); higher = more stable; sorted into four equal gates, so the index is relative within each strain
Conditions: pdr5∆
One number for each entry.

Batch lookup, protein stability index per entry.
1. TKSSLNDLDYDLIADTI [YML103C/NUP188]
2. FFRNKLKYHDFLRKATA [RPL16B]
3. FGQASGASTGNANTGFS [YGL172W/NUP49]
4. LYEKDIVPSMTHLEIEP [RET1]
5. KPGIPRGNTKIHSMNEN [SIR3]

[2.48, 2.48, 3.39, 2.65, 2.9]

---

Would you kindly list protein stability index for each of these sequences?
Experiment: protein stability index of a GFP-peptide fusion (yeast GPS) (PSI 1-4); higher = more stable; sorted into four equal gates, so the index is relative within each strain
Conditions: san1∆
Numbers only.

See these solved cases before continuing.
seq	protein stability index
KEVSSFLMGIFNSVVNL [MTR3]	2.88
IASAGKDGEIMLWNLAA [ASC1]	3.03
KIIEDLRQKHEFLEDFD [SMC2]	2.6
DANLLEEGETSRPLKKV [SWI3]	2.95
LPKIIQLQGPQWMNEMV [SOH1]	3.14

Okay, now this sequence:
Which protein stability index is listed for REGSSARTIKATLPYIK [RPB2] ?
2.85

---

Test: protein stability index of a GFP-peptide fusion (yeast GPS) (PSI 1-4); higher = more stable; sorted into four equal gates, so the index is relative within each strain
Settings: pdr5∆
assayEndpoint: protein stability index
Numbers only.

See these solved cases before continuing.
seq	protein stability index
ILDPSTEYCVGDYVAYQ [YMR129W/POM152]	3.63
LFGSKPQGSTTNGGLFG [YGR119C/NUP57]	3.47
AQWERSKLSQEFLYPHL [SNF12]	3

Which protein stability index is listed for HHSWSQSDLEIITQYVF [ARP9] ?
2.82

---

Test: protein stability index of a GFP-peptide fusion (yeast GPS) (PSI 1-4); higher = more stable; sorted into four equal gates, so the index is relative within each strain
Settings: san1∆
assayEndpoint: protein stability index
Answers are plain numbers.

seq	protein stability index
QSNINTNAPLRTLNIQP [YIL149C/MLP2]	1.99
MRILSNDITNLQLSKTP [SRB8]	2.92
NPFEDDMDGVDFNQAFE [BRN1]	3.39
PLRENTNVLDVKDKEED [YDL116W/NUP84]	3.25
KFQLQNQLEDFILELEH [YIL149C/MLP2]	2.11
ISLPKGKGIKLSIAEER [RPS4A]	2.62
KTNEESAKMILLSDPTI [PRP8]	2.94
LHYIPKYNRYEKRHKNV [RPS11A]	1.78

Batch lookup, protein stability index per entry.
1. AKSNEDKQDGTAKPAFS [YJL041W/NSP1]
2. RDEIAKNTELSYDFLPL [RPN12]

1: 3.29; 2: 1.82

Batch lookup, protein stability index per entry.
1. SIDDHPYNLNLFPNELY [RPC31]
2. ADNVDKILEQFEYVLYP [FAS2]
3. AYNKKSTISAREIQTAV [HTB1]
4. KISLLRPSFQNNRISNA [SWP82]
5. GRDTTDYLKNIIVENSG [RPN2]

1. 2.69
2. 2.17
3. 2.98
4. 2.23
5. 3.34

Batch lookup, protein stability index per entry.
1. ISQLYSDAVMAEHSQNK [YJL041W/NSP1]
2. MKWSAIPFQTLYRSIES [YJL039C/NUP192]
3. QLIGSNIELHSLYTSRE [PUP1]
4. GGDVVKFQKLLQNSERD [SMC4]
5. NRKVRAGRGFTLAEVKA [RPL13A]
6. SSNISPEQVYSLLLTNV [ARP7]
7. RRYDRKQSGFGGQTKPV [RPL42A]

[2.75, 1.7, 3.34, 3.06, 2.82, 2.43, 2.88]

Batch lookup, protein stability index per entry.
1. KPDSDIVALSSEEINQY [PRE6]
2. NIDSSAQFTFGKAATAK [YOR098C/NUP1]
3. LERYVKRCMDDLNPLKT [RPO31]
4. LYKIFSYALSMEKDKLK [SNU114]

3.19
3.22
3.27
1.63

These entries and their values trace back to the supplement of paper PMC9732359.
